Molecular target: h5-HT4b (Homo sapiens)
Construct: expressed in transfected cells; host or cells: HEK 293 (clone 9), membrane preparation
Sequence (Q13639 whole entry): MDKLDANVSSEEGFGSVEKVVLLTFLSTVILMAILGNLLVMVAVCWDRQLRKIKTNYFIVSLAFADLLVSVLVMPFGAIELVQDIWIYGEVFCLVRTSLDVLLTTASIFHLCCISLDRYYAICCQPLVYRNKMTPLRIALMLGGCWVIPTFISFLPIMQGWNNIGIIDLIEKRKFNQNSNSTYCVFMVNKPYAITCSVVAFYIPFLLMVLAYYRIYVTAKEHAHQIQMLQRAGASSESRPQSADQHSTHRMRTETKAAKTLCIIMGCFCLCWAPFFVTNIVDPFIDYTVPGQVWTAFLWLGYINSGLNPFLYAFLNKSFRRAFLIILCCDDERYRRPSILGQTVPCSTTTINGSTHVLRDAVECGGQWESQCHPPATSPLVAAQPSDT
Assay: 5HT4 antagonism: [3H]GR113808 binding to membranes of h5-HT4b-HEK 293 clone 9 cells
Settings: displacement of [3H]GR113808 0.1 nM, h5-HT4b-HEK 293 membranes, 30 min at 25° C.; read-out: pIC50 (5HT4 antagonistic data) (converted)
Note to self: IC50 under 9 nM means 1, ties and anything higher get 0.

Consider the compound CO[C@@H]1CN(CCCOc2ccc(C(=O)O)cc2)CC[C@H]1CNC(=O)c1cc(Cl)c(Cl)c2c1OCCCO2 (relative stereo) . Is its IC50 strictly less than 9 nM? 1

Consider the compound O=C(O)c1ccc(OCCCN2CCC(CNC(=O)c3cc(Cl)cc4c3OCCCO4)C(O)C2)cc1 (stereo not drawn) . Is its IC50 strictly less than 9 nM? 0

Consider the compound Cc1ccc(C(=O)NC[C@@H]2CCN(CCOc3ccc(C(=O)O)cc3)C[C@H]2O)c2c1OCCCO2 . Is its IC50 strictly less than 9 nM? 0

Consider the compound Cc1ccc(C(=O)NC[C@@H]2CCN(CCCOc3ccc(C(=O)O)cc3)C[C@H]2O)c2c1OCCCO2 . Is its IC50 strictly less than 9 nM? 1

Consider the compound Cc1cc2c(c(C(=O)NC[C@@H]3CCN(CCCOc4ccc(C(=O)O)cc4)C[C@H]3O)c1)OCCCO2 (relative stereo) . Is its IC50 strictly less than 9 nM? 0

Consider the compound O=C(O)c1ccc(OCCCN2CC[C@@H](CNC(=O)c3cc(Cl)c(Br)c4c3OCCCO4)[C@H](O)C2)cc1 (relative stereo) . Is its IC50 strictly less than 9 nM? 1

Consider the compound O=C(O)c1ccc(OCCN2CC[C@@H](CNC(=O)c3cc(Cl)cc4c3OCCCO4)[C@H](O)C2)cc1 . Is its IC50 strictly less than 9 nM? 0

Consider the compound COC1CN(CCCOc2ccc(C(=O)O)cc2)CCC1CNC(=O)c1cc(C)cc2c1OCCCO2 (stereo not drawn) . Is its IC50 strictly less than 9 nM? 0

Consider the compound O=C(O)c1ccc(OCCCCN2CC[C@@H](CNC(=O)c3cc(Cl)cc4c3OCCCO4)[C@H](O)C2)cc1 . Is its IC50 strictly less than 9 nM? 1

Consider the compound Cc1ccc(C(=O)NC[C@@H]2CCN(CCCOc3cccc(C(=O)O)c3)C[C@H]2O)c2c1OCCCO2 . Is its IC50 strictly less than 9 nM? 1

Consider the compound COc1ccc(C(=O)NCC2CCN(CCCOc3ccc(C(=O)O)cc3)CC2OC)c2c1OCCCO2 (stereo not drawn) . Is its IC50 strictly less than 9 nM? 0

Consider the compound O=C(O)c1ccccc1OCCCN1CC[C@@H](CNC(=O)c2cc(Cl)cc3c2OCCCO3)[C@H](O)C1 (relative stereo) . Is its IC50 strictly less than 9 nM? 0

Consider the compound Cc1cc2c(c(C(=O)NC[C@@H]3CCN(CCCCOc4ccc(C(=O)O)cc4)C[C@H]3O)c1)OCCCO2 . Is its IC50 strictly less than 9 nM? 0

Consider the compound Cc1cc2c(c(C(=O)NC[C@@H]3CCN(CCOc4ccc(C(=O)O)cc4)C[C@H]3O)c1)OCCCO2 . Is its IC50 strictly less than 9 nM? 0

Consider the compound Cc1cc2c(c(C(=O)NC[C@@H]3CCN(CCCOc4ccccc4C(=O)O)C[C@H]3O)c1)OCCCO2 . Is its IC50 strictly less than 9 nM? 0

Consider the compound Cc1ccc(C(=O)NC[C@@H]2CCN(CCCCOc3ccc(C(=O)O)cc3)C[C@H]2O)c2c1OCCCO2 . Is its IC50 strictly less than 9 nM? 1

Consider the compound O=C(O)c1ccc(OCCCN2CCC(CNC(=O)c3cc(Cl)c(Cl)c4c3OCCCO4)C(O)C2)cc1 (stereo not drawn) . Is its IC50 strictly less than 9 nM? 1

Consider the compound Cc1cc2c(c(C(=O)NCC3CCN(CCCOc4cccc(C(=O)O)c4)CC3O)c1)OCCCO2 (stereo not drawn) . Is its IC50 strictly less than 9 nM? 0
